Task for the reader: assign each of the following binders its reported neutralization IC50.
- assayed target: HIV-1 Env of CM244.ec1 (HIV-1)
- test name: cell-based or functional assay
Field format: number, assumed µg/mL, no unit text.

Ask: Note down neutralization IC50 recorded for CAP256-VRC26.02 (antibody, V domains shown) VH: EVQLVESGGGVVQPGRSLRLSCAASQFSFGNYGMHWVRQAPGKGLEWVAAISFAGTKTNYADSVKGRFTISRDNSKNTVYLQMNSLRAEDTALYFCAKDIREYECEYWTSDYYDFGRPQPCIDSRGVVGTFDVWGQGTMVTVSS VL: QSVLTQPPSVSAAPGQKVTISCSGSNSNIGNKDVSWYQQIPATAPKLLIYENNKRPSGISDRFSGSKSGTSATLAITGLQTGDEADYYCATWDGRVSVIGTGTNVIVLG
Result: 2.03

Ask: Note down neutralization IC50 recorded for CAP256-VRC26.09 (antibody, V domains shown) VH: EVQLVESGGGVVQPGRSLTLSCAASQFNFANYGMHWVRQAPGKGLEWVASISNDGTKKYHEESVWGRFTISKDNSKSTLFLQMNSLRIEDTALYFCVKDQREDECEEWWSDYYDFGRELPCRKSRGLGLAGIFDMWGHGTMVTVSS VL: QSALTQPPSVSAAPGQKVTISCSGNSSNIGNNFVSWYQQLPGTAPKLLIYENNRRPSGIPDRFSGSKSGTSATLAISGLQTGDEADYWCAVWGVRRGAGAVFGAGTKVTVLG
Result: 0.105

Ask: Note down neutralization IC50 recorded for CAP256-VRC26.01 (antibody, V domains shown) VH: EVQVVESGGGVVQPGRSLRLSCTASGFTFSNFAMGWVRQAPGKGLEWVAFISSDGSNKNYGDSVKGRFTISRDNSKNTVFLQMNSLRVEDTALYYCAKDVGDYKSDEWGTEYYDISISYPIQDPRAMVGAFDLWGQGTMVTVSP VL: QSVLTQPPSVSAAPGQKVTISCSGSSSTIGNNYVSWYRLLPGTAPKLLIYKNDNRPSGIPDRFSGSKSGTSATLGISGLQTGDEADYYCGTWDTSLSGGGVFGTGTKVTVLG
Result: 3.32

Ask: Note down neutralization IC50 recorded for CAP256-VRC26.05 (antibody, V domains shown) VH: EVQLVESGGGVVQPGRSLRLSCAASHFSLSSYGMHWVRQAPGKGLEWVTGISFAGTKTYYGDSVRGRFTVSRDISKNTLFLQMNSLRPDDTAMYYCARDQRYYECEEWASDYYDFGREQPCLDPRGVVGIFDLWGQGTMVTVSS VL: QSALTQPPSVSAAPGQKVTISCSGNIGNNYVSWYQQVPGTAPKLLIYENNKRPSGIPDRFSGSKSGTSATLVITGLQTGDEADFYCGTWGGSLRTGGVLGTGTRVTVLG
Result: 0.517
